Test system: MCF7 breast
Assay: NCI-60 one-dose screen, 48 h (100 = growth as untreated, 0 = no growth, -100 = all killed)
Conditions: 10 µM
About 83,000 compounds went through this panel and 20% of them were active in at least one assay; those are over-represented in the sample as a whole.
Observation Type: growth (%)
Numeric answer only, unit % assumed.

## Task Which growth is reported for this molecule? Cc1ccc(/C=C2/C(=O)N(C)c3ccc(S(=O)(=O)Nc4ccc(C(C)(C)C)cc4)cc32)s1
## Result 72.4

## Task Which growth is reported for this molecule? CCN(CC)CCCC(Nc1c2ccc(Cl)cc2nc2ccc(OC)cc12)c1ccc(F)cc1 (stereo not given)
## Result -62.9

## Task Which growth is reported for this molecule? CCOC(=O)C1=CSC2=NC3=C(CCC/C3=C\c3ccc(Cl)cc3)C(c3ccc(Cl)cc3)N12 (stereo not given)
## Result 31.3

## Task Which growth is reported for this molecule? CN1CCc2c(sc3nc4n(-c5ccc(Cl)cc5)cnn4c(=O)c23)C1
## Result 70.6

## Task Which growth is reported for this molecule? O=C(CCl)Oc1ccc(OC(=O)CCl)cc1
## Result 77.9

## Task Which growth is reported for this molecule? O=C(CCC(C(=O)c1ccccc1)c1ccccc1)c1ccccc1 (stereo not given)
## Result 72

## Task Which growth is reported for this molecule? CC(=O)C1N=NCC1c1ccccc1 (stereo not given)
## Result 95.7

## Task Which growth is reported for this molecule? O=C(N/N=C/c1c(Cl)cccc1Cl)c1ccccc1Nc1cccc(C(F)(F)F)c1
## Result 94.7

## Task Which growth is reported for this molecule? O=C(O)c1cn(C2CC2)c2cc(N3CCN(C(=O)c4cc(-c5ccc(Cl)cc5)nc5ccccc45)CC3)c(F)cc2c1=O
## Result 89.7

## Task Which growth is reported for this molecule? O=C(CN(C1CCCCC1)C1CCCCC1)Nc1ccc(S(=O)(=O)c2ccc(NC(=O)CN(C3CCCCC3)C3CCCCC3)cc2)cc1
## Result -40.7

###

System: HCT-15 colon
Experiment: NCI-60 one-dose screen, 48 h (100 = growth as untreated, 0 = no growth, -100 = all killed)
Details: 10 µM
About 83,000 compounds went through this panel and 20% of them were active in at least one assay; those are over-represented in the sample as a whole.
Hi, to clarify the labels: MET covers growth from 50% upward, NOT MET covers anything below 50%.

## Task Quick check: does Cc1ccc(NCCN(C)CC(C)O)c2c(=O)c3ccccc3sc12 (stereo not given) have growth greater than or equal to 50%?
## Result NOT MET

## Task Quick check: does COc1cc(-c2nn(-c3cccc(NC(=O)CCN4CCN(c5ccccc5)CC4)c3)cc2-c2ccncc2)ccc1Cl have growth greater than or equal to 50%?
## Result NOT MET

## Task Quick check: does COc1nc2c(c(=O)n1C)CN(c1ccccc1)C(=O)C(C)N2 (stereo not given) have growth greater than or equal to 50%?
## Result MET

## Task Quick check: does CN1C(C(=O)Nc2ccccn2)=C(O)c2sc(Cl)cc2S1(=O)=O have growth greater than or equal to 50%?
## Result MET

## Task Quick check: does O=C(Nc1cccc2c1CCCC2)c1cc2ccccc2cc1O have growth greater than or equal to 50%?
## Result NOT MET

## Task Quick check: does O=C1CCn2c1c(O)c1ccccc1c2=O have growth greater than or equal to 50%?
## Result MET

## Task Quick check: does CN(C)CCOc1ccccc1NC1=C(Cl)C(=O)C(Nc2ccccc2OCCN(C)C)=C(Cl)C1=O have growth greater than or equal to 50%?
## Result MET

## Task Quick check: does COc1ccc(C(=O)COc2cccc(/C=C3\Cc4ccccc4C3=O)c2)cc1 have growth greater than or equal to 50%?
## Result MET

## Task Quick check: does CN1C(=O)C2(Nc3cc(Cl)ccc3S2)c2cc(Cl)ccc21 (stereo not given) have growth greater than or equal to 50%?
## Result MET

## Task Quick check: does CN1CCN(CC(=O)Nc2cccc(-n3cc(-c4ccncc4)c(-c4ccc(Cl)c(O)c4)n3)c2)CC1 have growth greater than or equal to 50%?
## Result NOT MET

## Task Quick check: does COc1cc(-c2nc3ccccc3o2)cc(CN2CCCCC2)c1O have growth greater than or equal to 50%?
## Result NOT MET

## Task Quick check: does CC(C)C[C@H](NC(=O)Cn1cccc(CNC(=O)c2ccccc2)c1=O)B(O)O have growth greater than or equal to 50%?
## Result MET

## Task Quick check: does COc1ccc(C(=O)N2C=Cc3ccccc3C2C#N)cc1 (stereo not given) have growth greater than or equal to 50%?
## Result MET

## Task Quick check: does CN1CCc2c(sc3nc4n(-c5ccc(Cl)cc5)c(=O)[nH]n4c(=O)c23)C1 have growth greater than or equal to 50%?
## Result MET

## Task Quick check: does O=C(CCC(C(=O)c1ccccc1)c1ccccc1)c1ccccc1 (stereo not given) have growth greater than or equal to 50%?
## Result NOT MET

## Task Quick check: does COc1ccc(/C(=N\N)C(=O)c2ccccc2)cc1 (tested in a mixture with another compound) have growth greater than or equal to 50%?
## Result MET

## Task Quick check: does Nc1nc(N)c(N)c(Nc2ccc(CCO)cc2)n1 have growth greater than or equal to 50%?
## Result MET

## Task Quick check: does C=C1CCC2(C#N)[C@H]3[C@H](CC[C@@H]2C)[C@@H](C)C[C@@H](CC(C)(C)NC(=O)CN2CCC2=O)[C@H]13 (stereo not given in full) have growth greater than or equal to 50%?
## Result NOT MET

## Task Quick check: does COc1ccc(-c2cc(-c3ccc(OC)c(OC)c3)nc(SCCCC(=O)NO)n2)cc1 have growth greater than or equal to 50%?
## Result NOT MET

## Task Quick check: does C/C(=C/CCC(C)[C@@H]1CC[C@]2(C)C3=C(CC[C@@]12C)[C@@]1(C)CCC(=O)C(C)(C)[C@@H]1CC3)C(=O)O (stereo not given in full) have growth greater than or equal to 50%?
## Result NOT MET

###

Tested on: SF-295 CNS
Experiment: NCI-60 one-dose screen, 48 h
Details: 10 µM
About 83,000 compounds went through this panel and 20% of them were active in at least one assay; those are over-represented in the sample as a whole. Activity calls are given as the source filed them. How the source made its calls: active means growth percent below 10; inactive means the rest.
Entry note: the call must match one of class 1 (active), class 0 (inactive)

## Task Could you kindly confirm the outcome this assay logged for COc1ccc(-c2nc(-c3nc4ccc(C)cc4[nH]3)cc3c2[nH]c2ccccc23)cc1 ?
## Result class 0

## Task Could you kindly confirm the outcome this assay logged for CCOC(=O)C1=CSC2=NC3=C(CCC/C3=C\c3ccc(Cl)cc3)C(c3ccc(Cl)cc3)N12 (stereo not given) ?
## Result class 0

## Task Could you kindly confirm the outcome this assay logged for COc1ccc(-c2cc(-c3ccc(Cl)cc3)nc(SCCCCCCC(=O)NO)n2)cc1OC ?
## Result class 0

## Task Could you kindly confirm the outcome this assay logged for O=C(CNc1nnc(-c2cccnc2SCc2ccccc2)s1)Nc1nc(Cl)cc(Cl)n1 ?
## Result class 0

## Task Could you kindly confirm the outcome this assay logged for Cc1c2c[n+](C(C)C)ccc2c(C)c2c1[nH]c1ccccc12 ?
## Result class 1

###

Tested on: OVCAR-5 ovarian
Assay: NCI-60 one-dose screen, 48 h (100 = growth as untreated, 0 = no growth, -100 = all killed)
Conditions: 10 µM
About 83,000 compounds went through this panel and 20% of them were active in at least one assay; those are over-represented in the sample as a whole.
What growth was measured for each of the following?
Numeric answer only, unit % assumed.

## Task Which growth is reported for this molecule? Clc1ccc(C2=NN=C3C(Cc4ccccc4)=Nc4ccccc4N3C2)cc1
## Result 90

## Task Which growth is reported for this molecule? CC[C@@H](C(=O)[C@@H](C)[C@@H](O)[C@H](C)[C@@H]1O[C@@H]([C@@H](CC)C(=O)N(CC)CC)CC[C@@H]1C)C1O[C@]2(C=CC(=O)[C@]3(CC[C@@](C)([C@H]4CC[C@](O)(CC)[C@H](C)O4)O3)O2)[C@H](C)C[C@@H]1C (some centres undefined)
## Result 29.7

## Task Which growth is reported for this molecule? CNC(=O)c1cn(C2CC2)c2cc(N3CCN(C(=O)c4cc(OC)c(OC)c(OC)c4)CC3)c(F)cc2c1=O
## Result 96

## Task Which growth is reported for this molecule? O=C(CCc1nnc2sc(-c3cc(O)c(O)c(O)c3)nn12)c1nc2ccccc2[nH]1
## Result 117

## Task Which growth is reported for this molecule? C=CCn1c(SCC(=O)Nc2ccc(C(=O)/C=C/c3ccc(OC)cc3)cc2)nnc1-c1ccc(OC)c(OC)c1
## Result 110

## Task Which growth is reported for this molecule? Cc1cc(=O)n2nnc3cc(Cl)c(Cl)cc3n12
## Result 107

## Task Which growth is reported for this molecule? COc1cccc(N=Nc2cccc(OC)c2)c1
## Result 90.6

## Task Which growth is reported for this molecule? O=C(Nc1cccc2c1CCCC2)c1cc2ccccc2cc1O
## Result 103

## Task Which growth is reported for this molecule? COc1cc(/C=C2\CCCC3=C2NC(N)=NC3c2cc(OC)c(OC)c(OC)c2)cc(OC)c1OC (centres undefined)
## Result 6.85
